test.method.notes: Toxicity liver stage against HepG2, at 10uM
Type: cell-based
Parameters: test concentration 10 uM, cell line HepG2-A16-CD81EGFP
condition.parameters: human, HepG2-A16-CD81EGFP cells; read-out: INHIBITION
metric: cytotoxicity at 10 µM (%)
Give bare numbers, in %.

Worked examples follow.
Lab note: CC(C)c1nc(O)c2nnn(C[C@@H]3CCCN(Cc4ccsc4)C3)c2n1 gave cytotoxicity at 10 µM of -4.6

// sample O=C(CCc1ccco1)Nc1ccc(Br)cn1 , its cytotoxicity at 10 µM was 81.2

// recorded cytotoxicity at 10 µM for Cn1cc(CN(C/C=C/c2ccccc2)C2CC2)cn1 : -10.1

The recorded cytotoxicity at 10 µM for COc1cc(N2CCOC(c3ccc(F)cc3)C2)ncn1 (stereo not drawn) is 15.3

Lab note: measured cytotoxicity at 10 µM of CCc1nc(N)nc(N(C)Cc2nncn2CCOC)c1C was -6.41

Below are 8 compounds. Give each one its cytotoxicity at 10 µM.
1. COc1ccc(C(O)CNc2c(C#N)c(=O)n(C)c(=O)n2C)cc1 (stereo not drawn)
2. O=S1(=O)CCC(n2cc(CNCC3(c4ccccc4)CC3)cn2)C1 (stereo not drawn)
3. O=C(c1ccco1)N1CCO[C@@H]2CNCC[C@@H]2C1
4. O=C(NCc1cncc2c1CCN(CC1CCOC1)C2)c1ccno1 (stereo not drawn)
5. CC(C)NC(=O)[C@@H](NC(=O)N1CCN(c2ccc(Cl)cc2)CC1)C(C)C
6. O=C(CCC(F)(F)F)NCC1CCCS1 (stereo not drawn)
7. Cc1n[nH]c(SCC(=O)NC(c2ccncc2)C(C)C)n1 (stereo not drawn)
8. Cn1cc(C2CCCN2C(=O)Cc2coc(-c3ccccc3)n2)cn1 (stereo not drawn)

1: -7.34; 2: 16.5; 3: -75.2; 4: 13; 5: 34.9; 6: -1.58; 7: 16.4; 8: 4.14

Please give cytotoxicity at 10 µM, item by item, for the list that follows.
1. Cc1ccc2nc(C(=O)N3CCNC(=O)C3c3cccc(F)c3)cn2c1 (stereo not drawn)
2. Oc1nc(N2CCCC2)nc2c1CCN(Cc1ccsc1)CC2
3. CCN1CCC(NC(=O)NCC(O)c2ccc(Cl)c(F)c2)CC1 (stereo not drawn)
4. Cn1nc(-c2cccs2)cc1[C@H]1CN2CC[C@H]1C[C@@H]2CN
5. O=C(O)c1ccn(-c2ccccc2NS(=O)(=O)c2cccc(Cl)c2F)n1
6. O=C(O)CCn1ccc2c(nnc3c(-c4ccc(F)cc4)cnn32)c1=O

1: -5.66; 2: -12; 3: -3.82; 4: 5.88; 5: -3.36; 6: 4.01

Working through the 3 compounds below one at a time, give cytotoxicity at 10 µM for each.
1. Nc1nc(Nc2ccccc2)cc(N2CCNCC2)n1
2. OCc1cccc(CNCc2cccc3c2OCCO3)c1
3. CCOC(=O)C1CCN(C(=O)CN2CCCC2c2ccsc2)CC1 (stereo not drawn)

1. 1.23
2. 4.25
3. -5.42

What the record says about O=C(CCc1nc(-c2ccccc2)no1)N[C@H]1COC[C@@H]1N1CCCC1 : cytotoxicity at 10 µM is -1.83

# credit: ChEMBL document CHEMBL4513216
